- measuredTarget: rat 5-HT4 (CG-8) receptor (Rattus norvegicus, UniProt Q62758)
- Construct: two individual full length cDNA clones, S10-87 and S10-95, were isolated; expressed in transfected cells; host or cells: COS-7 (transient, DEAE-dextran)
- Sequence (Q62758 whole entry): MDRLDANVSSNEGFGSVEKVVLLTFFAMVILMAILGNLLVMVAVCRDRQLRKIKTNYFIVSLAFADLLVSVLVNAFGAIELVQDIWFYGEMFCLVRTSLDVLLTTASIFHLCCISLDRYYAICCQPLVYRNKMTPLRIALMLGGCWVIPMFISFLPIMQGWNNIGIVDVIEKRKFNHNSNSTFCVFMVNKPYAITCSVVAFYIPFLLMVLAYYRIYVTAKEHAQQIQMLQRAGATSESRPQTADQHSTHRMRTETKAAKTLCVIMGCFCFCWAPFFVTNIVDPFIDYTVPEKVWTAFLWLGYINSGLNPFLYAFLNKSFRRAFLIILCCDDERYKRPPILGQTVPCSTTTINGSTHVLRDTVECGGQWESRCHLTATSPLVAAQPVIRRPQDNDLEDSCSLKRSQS
- experimentDescription: cAMP formation in intact Cos-7 cells transiently expressing CG-8
- Assay type: cell-based
- assaySetup: CG-8, maximum response normalized to 5-HT maximum = 1.0
property: I. A. (intrinsic activity)
Numbers only.

Here are 3 molecules together with their reported answers.
# molecule, I. A. (intrinsic activity)
data = [
    ("NCCc1c[nH]c2ccc(O)cc12 [5-HT, serotonin]", 1.0),
    ("COc1cc(N)c(Cl)cc1C(=O)NC1CN2CCC1CC2 (stereo not shown) [Zacopride, zacopride]", 1.0),
    ("CC(N)Cc1c[nH]c2ccc(O)cc12 (stereo not drawn) [α-Me-5-HT]", 1.0),
]

Look up I. A. (intrinsic activity) for the entries below, preserving their order.
1. COc1cc(N)c(Cl)cc1C(=O)NC1CCN(CCCOc2ccc(F)cc2)CC1OC (stereo not shown) [Cisapride, cisapride]
2. COc1ccc2[nH]cc(CCN)c2c1 [5-MeOT, 5-methoxytryptamine]
3. CN1[C@@H]2CC[C@H]1C[C@@H](OC(=O)c1c[nH]c3ccccc13)C2 [ICS 205930]
4. NCCc1c[nH]c2ccc(C(N)=O)cc12 [5-CT, 5-carboxyamidotryptamine]

1: 1.4; 2: 1.0; 3: 0; 4: 1.2

* * *

What pKi was measured for each of the following?
- measuredTarget: rat 5-HT4 receptor S10-87 (CG-7) (Rattus norvegicus)
- experimentDescription: [3H]5-HT radioligand binding (saturation and displacement), membranes of Cos-7 cells transiently expressing rat S10-87 (CG-7)
pKi: −log10 of the molar value.

# compound, property, experimentalValue
records = [
    ("O=C(c1ccc(F)cc1)C1CCN(CCn2c(=O)[nH]c3ccccc3c2=O)CC1", "pKi", "< 6.00"),
]

Look up pKi for the entries below, preserving their order.
1. CNS(=O)(=O)Cc1ccc2[nH]cc(CCN(C)C)c2c1
2. CCCN(CCC)C1CCc2cccc(O)c2C1 (stereo not shown) [8-OH-DPAT, 8-hydroxy-2-(di-n-propylamino)tetralin]
3. COc1cc(N)c(Cl)cc1C(=O)NC1CN2CCC1CC2 (stereo not shown) [Zacopride, zacopride]

1: < 6.00; 2: < 6.00; 3: 6.89

* * *

- measuredTarget: rat 5-HT4 receptor S10-95 (CG-8) (Rattus norvegicus, UniProt Q62758)
- Sequence (Q62758 whole entry): as above
- experimentDescription: [3H]GR113808 binding (saturation and displacement), COS-7 membranes, rat clone CG-8
- Parameters: two individual full length cDNA clones, S10-87 and S10-95, were isolated; expressed in transfected cells; host or cells: COS-7 (transient, DEAE-dextran)
- assaySetup: read-out: KL (affinity for the low affinity state); CG-8, [3H]GR113808
property: Ki (µM)
Give bare numbers, in µM.

Input COc1cc(N)c(Cl)cc1C(=O)NC1CCN(CCCOc2ccc(F)cc2)CC1OC (stereo not shown) [Cisapride, cisapride] , output reported Ki.
0.105

* * *

- measuredTarget: rat 5-HT4 (CG-8) receptor (Rattus norvegicus, UniProt Q62758)
- Construct: two individual full length cDNA clones, S10-87 and S10-95, were isolated; expressed in transfected cells; host or cells: COS-7 (transient, DEAE-dextran)
- experimentDescription: cAMP formation in intact Cos-7 cells transiently expressing CG-8
- Type: cell-based
- assaySetup: CG-8, stimulation of basal cAMP release; means ± S.E.M. of three experiments; read-out: EC50
What pEC50 was measured for each of the following?
Numbers only, as −log10 of the molar value.

# compound, pEC50
data = [
    ("CC(N)Cc1c[nH]c2ccc(O)cc12 (stereo not drawn)", 5.98),
    ("COc1cc(N)c(Cl)cc1C(=O)NC1CN2CCC1CC2 (stereo not drawn) [Zacopride, zacopride]", 6.62),
]

Then there is this compound:
Input COc1cc(N)c(Cl)cc1C(=O)NC1CCN(CCCOc2ccc(F)cc2)CC1OC (stereo not drawn) [Cisapride, cisapride] , output reported pEC50.
6.38

* * *

What Ki was measured for each of the following?
- measuredTarget: rat 5-HT4 receptor S10-87 (CG-7) (Rattus norvegicus)
- experimentDescription: [3H]5-HT radioligand binding (saturation and displacement), membranes of Cos-7 cells transiently expressing rat S10-87 (CG-7)
- assaySetup: K1 (nM), CG-7, binding data using [3H]5-HT, Table 4
One number for each entry, in nM.

Here are 3 molecules together with their reported answers.
# molecule, Ki, nM
rows = [
    ("COc1ccc2[nH]cc(CCN)c2c1", 27),
    ("COc1cc(N)c(Cl)cc1C(=O)NC1CN2CCC1CC2 (centres unmarked) [Zacopride, zacopride]", 130),
    ("COc1cc(N)c(Cl)cc1C(=O)NC1CCN(CCCOc2ccc(F)cc2)CC1OC (centres unmarked) [Cisapride, cisapride]", 11),
]

Input `CN1[C@@H]2CC[C@H]1C[C@@H](OC(=O)c1c[nH]c3ccccc13)C2` , output reported Ki.
115

* * *

- measuredTarget: rat 5-HT4 receptor S10-87 (CG-7) (Rattus norvegicus)
- experimentDescription: [3H]GR113808 binding (saturation and displacement), COS-7 membranes, rat clone CG-7
- Parameters: two individual full length cDNA clones, S10-87 and S10-95, were isolated; expressed in transfected cells; host or cells: COS-7 (transient, DEAE-dextran)
- assaySetup: KH (affinity for the high affinity state), CG-7, [3H]GR113808
property: pKi
Give bare numbers, as −log10 of the molar value.

Input COc1ccc2[nH]cc(CCN)c2c1 [5-MeOT, 5-methoxytryptamine] , output reported pKi.
7.85

* * *

- measuredTarget: rat 5-HT4 receptor S10-95 (CG-8) (Rattus norvegicus, UniProt Q62758)
- experimentDescription: [3H]5-HT radioligand binding (displacement), membranes of Cos-7 cells transiently expressing rat S10-95 (CG-8)
- assaySetup: read-out: K1; CG-8, binding data using [3H]5-HT, Table 4
property: pKi
Answers are plain numbers, as −log10 of the molar value.

Input COc1cc(N)c(Cl)cc1C(=O)NC1CN2CCC1CC2 (stereo not shown) [Zacopride, zacopride] , output reported pKi.
6.87

* * *

- measuredTarget: rat 5-HT4 receptor S10-95 (CG-8) (Rattus norvegicus)
- experimentDescription: [3H]GR113808 binding (saturation and displacement), COS-7 membranes, rat clone CG-8
- Set-up: two individual full length cDNA clones, S10-87 and S10-95, were isolated; expressed in transfected cells; host or cells: COS-7 (transient, DEAE-dextran)
- assaySetup: CG-8, 0.2-0.4 nM [3H]GR113808, single experiment; read-out: Affinity estimate K1
property: pKi
Answers are plain numbers, as −log10 of the molar value.

Here are 3 compounds together with their reported answers.
# compound, pKi
rows = [
    ("COc1cc(N)c(Cl)cc1C(=O)NC1CCN(CCCOc2ccc(F)cc2)CC1OC (centres unmarked) [Cisapride, cisapride]", 7.08),
    ("CC(N)Cc1c[nH]c2ccc(O)cc12 (stereo not drawn) [α-Me-5-HT]", 5.73),
    ("COc1cc(N)c(Cl)cc1C(=O)NC1CN2CCC1CC2 (centres unmarked) [Zacopride, zacopride]", 6.09),
]

Input CN1[C@@H]2CC[C@H]1C[C@@H](OC(=O)c1c[nH]c3ccccc13)C2 [ICS 205930] , output reported pKi.
6.28

* * *

- measuredTarget: human 5-HT4 receptor S10-95 (CG-17) (Homo sapiens)
- Sequence (Q13639 whole entry): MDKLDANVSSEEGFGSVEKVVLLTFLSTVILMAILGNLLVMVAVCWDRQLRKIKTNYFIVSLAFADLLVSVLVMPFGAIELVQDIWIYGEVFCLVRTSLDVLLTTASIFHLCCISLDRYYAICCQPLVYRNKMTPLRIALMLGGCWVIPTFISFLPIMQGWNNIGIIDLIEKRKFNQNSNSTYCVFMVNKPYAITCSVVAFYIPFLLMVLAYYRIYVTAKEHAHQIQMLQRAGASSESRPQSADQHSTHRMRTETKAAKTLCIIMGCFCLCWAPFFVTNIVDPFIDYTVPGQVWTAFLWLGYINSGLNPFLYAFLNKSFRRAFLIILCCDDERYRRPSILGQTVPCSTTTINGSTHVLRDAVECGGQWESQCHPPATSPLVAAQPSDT
property: pKd
One number for each entry, as −log10 of the molar value.

Input Cn1cc(C(=O)OCC2CCN(CCNS(C)(=O)=O)CC2)c2ccccc21 [[^3H]GR113808] , output reported pKd.
9.70

* * *

- measuredTarget: rat 5-HT4 (CG-7) receptor (Rattus norvegicus)
- Construct: two individual full length cDNA clones, S10-87 and S10-95, were isolated; expressed in transfected cells; host or cells: COS-7 (transient, DEAE-dextran)
- Sequence (Q62758 1-387 isoform Q62758-2): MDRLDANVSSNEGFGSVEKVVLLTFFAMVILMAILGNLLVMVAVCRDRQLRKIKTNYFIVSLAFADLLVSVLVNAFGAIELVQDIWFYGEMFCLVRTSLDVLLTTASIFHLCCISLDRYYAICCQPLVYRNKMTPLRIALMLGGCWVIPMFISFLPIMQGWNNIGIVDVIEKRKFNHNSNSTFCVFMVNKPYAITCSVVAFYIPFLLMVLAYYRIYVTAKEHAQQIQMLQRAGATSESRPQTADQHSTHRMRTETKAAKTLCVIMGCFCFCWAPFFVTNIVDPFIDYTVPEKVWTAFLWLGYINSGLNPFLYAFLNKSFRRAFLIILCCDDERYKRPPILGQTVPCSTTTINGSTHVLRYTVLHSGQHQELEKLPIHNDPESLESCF
- experimentDescription: cAMP formation in intact Cos-7 cells transiently expressing CG-7
- Assay type: cell-based
- assaySetup: CG-7, maximum response normalized to 5-HT maximum = 1.0
property: I. A. (intrinsic activity)
Give bare numbers.

# molecule, experimentalValue
measured = [
    ("NCCc1c[nH]c2ccc(C(N)=O)cc12", 0.85),
    ("CC(N)Cc1c[nH]c2ccc(O)cc12 (stereo not shown)", 0.90),
    ("COc1cc(N)c(Cl)cc1C(=O)NC1CN2CCC1CC2 (stereo not shown) [Zacopride, zacopride]", 1.1),
    ("COc1cc(N)c(Cl)cc1C(=O)NC1CCN(CCCOc2ccc(F)cc2)CC1OC (stereo not shown) [Cisapride, cisapride]", 1.2),
    ("NCCc1c[nH]c2ccc(O)cc12", 1.0),
]

Look up I. A. (intrinsic activity) for the entries below, preserving their order.
1. COc1ccc2[nH]cc(CCN)c2c1
2. CN1[C@@H]2CC[C@H]1C[C@@H](OC(=O)c1c[nH]c3ccccc13)C2

[1.0, 0]
